Please go through the items and note down their MIC.

Give Staphylococcus aureus Mu50 (ATCC 700699) MIC for CC(C)CCOc1ccc2ccccc2c1-c1c(OCC(=O)N[C@H](CCCCN)C(=O)N[C@H](CCCNC(=N)N)C(=O)N[C@@H](CC(C)C)c2nc(S(=O)(=O)O)c(-c3ccccc3)o2)ccc2ccccc12.Cl.Cl (atropisomer, axis not shown) [Compound 17]
0.99 to 15.6 µg/mL

Give Staphylococcus aureus Mu50 (ATCC 700699) MIC for Cl.Cl.N=C(N)NCCC[C@@H](NC(=O)CCCOc1ccc2ccccc2c1-c1c(OCCCC(=O)N[C@H](CCCNC(=N)N)C(=O)OCc2ccccc2)ccc2ccccc12)C(=O)OCc1ccccc1 (atropisomer, axis not shown) [Compound 31]
15.7 to 62.5 µg/mL

Give Staphylococcus aureus Mu50 (ATCC 700699) MIC for CC(C)CCOc1ccc2ccccc2c1-c1c(OCCNC(=O)[C@@H](CCCCN)NC(=O)[C@@H](CCCNC(=N)N)NC(=O)[C@@H](CC(C)C)NC(=O)Cc2ccccc2)ccc2ccccc12.Cl.Cl (atropisomer, axis not shown) [Compound 30]
0.99 to 15.6 µg/mL

Give Staphylococcus aureus Mu50 (ATCC 700699) MIC for CC(C)CCOc1ccc2ccccc2c1-c1c(OCC(=O)N[C@H](CCCCN)C(=O)N[C@H](CCCNC(=N)N)C(=O)N[C@@H](CC(C)C)C(=O)OCc2ccccc2)ccc2ccccc12.Cl.Cl (atropisomer, axis not shown) [Compound 1]
0.99 to 15.6 µg/mL
